Would you mind telling me the reported viability at 72 h, 10 ug/ml of each entry?
Experiment: Cytotoxicity against human HepG2 cells assessed as cell viability at 10 ug/ml after 72 hrs by neutral red uptake assay (reference value: 100%)
Format: cell-based
Details: read-out: Activity
The reply should contain only the number, in %.

Give its viability at 72 h, 10 ug/ml value. Item: `O=C(CSc1nc2ccccc2c(=O)[nH]1)NC1CCCCCC1`
105

Give its viability at 72 h, 10 ug/ml value. Item: CC1CCCC(NC(=O)CSc2nc3ccccc3c(=O)[nH]2)C1 (configuration not stated)
95

Give its viability at 72 h, 10 ug/ml value. Item: CC1CCCCC1NC(=O)CSc1nc2ccccc2c(=O)[nH]1 (configuration not stated)
101

Give its viability at 72 h, 10 ug/ml value. Item: `C[C@H]1CC[C@H](NC(=O)CSc2nc3ccccc3c(=O)[nH]2)CC1`
97

Give its viability at 72 h, 10 ug/ml value. Item: `O=C(CSc1nc2ccccc2c(=O)[nH]1)NC1CCCCC1`
95

Give its viability at 72 h, 10 ug/ml value. Item: CC1CCC(NC(=O)CSc2nc3ccccc3c(=O)[nH]2)CC1 (configuration not stated)
96

Give its viability at 72 h, 10 ug/ml value. Item: `O=C(CSc1nc2ccccc2c(=O)[nH]1)NCC1CCCCC1`
97

----------
Test: Cytotoxicity against human HaCaT cells assessed as cell viability at 10 ug/ml after 72 hrs by neutral red uptake assay (reference value: 100%)
Assay type: cell-based
Settings: read-out: Activity
Would you mind telling me the reported viability at 72 h, 10 ug/ml of each entry?
The reply should contain only the number, in %.

Give its viability at 72 h, 10 ug/ml value. Item: CC1CCCCC1NC(=O)CSc1nc2ccccc2c(=O)[nH]1 (configuration not stated)
99

Give its viability at 72 h, 10 ug/ml value. Item: CC1CCCC(NC(=O)CSc2nc3ccccc3c(=O)[nH]2)C1 (configuration not stated)
88

Give its viability at 72 h, 10 ug/ml value. Item: `O=C(CSc1nc2ccccc2c(=O)[nH]1)NC1CCCCCC1`
88

Give its viability at 72 h, 10 ug/ml value. Item: CC1CCC(NC(=O)CSc2nc3ccccc3c(=O)[nH]2)CC1 (configuration not stated)
94

Give its viability at 72 h, 10 ug/ml value. Item: `O=C(CSc1nc2ccccc2c(=O)[nH]1)NC1CCCCC1`
97

Give its viability at 72 h, 10 ug/ml value. Item: `C[C@H]1CC[C@H](NC(=O)CSc2nc3ccccc3c(=O)[nH]2)CC1`
97

Give its viability at 72 h, 10 ug/ml value. Item: `O=C(CSc1nc2ccccc2c(=O)[nH]1)NCC1CCCCC1`
88

----------
Tested on: Mycobacterium tuberculosis
Assay: Antitubercular activity against Mycobacterium tuberculosis H37Rv ATCC 27294 after 7 days by resazurin dye based assay
Type: functional
Conditions: H37Rv ATCC 27294, 168 h
assay-endpoint: MIC (µM)
The reply should contain only the number, in µM.

Give its MIC value. Item: CC1CCCC(NC(=O)CSc2nc3ccccc3c(=O)[nH]2)C1 (configuration not stated)
0.24

Give its MIC value. Item: NNC(=O)c1ccncc1 [ISONIAZID]
2.9

Give its MIC value. Item: CC1CCC(NC(=O)CSc2nc3ccccc3[nH]2)CC1 (configuration not stated)
41.2

Give its MIC value. Item: `O=C(CSc1nc2ccccc2c(=O)[nH]1)NCC1CCCCC1`
0.94

Give its MIC value. Item: `O=C(CSc1nc2ccccc2[nH]1)NCC1CCCCC1`
82.4

Give its MIC value. Item: CC1CCCCC1NC(=O)CSc1nc2ccccc2c(=O)[nH]1 (configuration not stated)
0.94

Measured values drawn from ChEMBL document CHEMBL4152290 for this set.
